Data provenance: ChEMBL document CHEMBL3739379

System: Candida tropicalis
Assay: Antifungal activity against Candida tropicalis clinical isolate after 24 hrs by sabouraud dextrose broth based microdilution method
Format: functional
Output Met for records whose MIC is lower than 2 µg/mL, Not met for records at or above 2 µg/mL.

// query Would you kindly verify if MIC of CC1CCC(=N/N=C2\SCC(=O)N2Cc2cccc3ccccc23)CC1 (stereo not given) is strictly less than 2 µg/mL?
// result Not met

// query Would you kindly verify if MIC of C/C(=N\N=C1/SCC(=O)N1CN1C(=O)c2ccccc2C1=O)c1ccco1 is strictly less than 2 µg/mL?
// result Not met

// query Would you kindly verify if MIC of CC1CCC/C1=N\N=C1/SCC(=O)N1CN1C(=O)c2ccccc2C1=O (stereo not given) is strictly less than 2 µg/mL?
// result Not met

// query Would you kindly verify if MIC of CC(C)=N/N=C1\SCC(=O)N1CN1C(=O)c2ccccc2C1=O is strictly less than 2 µg/mL?
// result Met

// query Would you kindly verify if MIC of CCC/C(C)=N/N=C1\SCC(=O)N1CN1C(=O)c2ccccc2C1=O is strictly less than 2 µg/mL?
// result Not met

// query Would you kindly verify if MIC of O=C1c2ccccc2C(=O)N1CN1C(=O)CS/C1=N\N=C\c1ccc2c(c1)OCO2 is strictly less than 2 µg/mL?
// result Not met
